Quick reference for pIC50 among some molecules
tested_on: human MDM2 protein (amino acids 2-188) (Homo sapiens (Human), UniProt Q00987)
Sequence (Q00987 2-188): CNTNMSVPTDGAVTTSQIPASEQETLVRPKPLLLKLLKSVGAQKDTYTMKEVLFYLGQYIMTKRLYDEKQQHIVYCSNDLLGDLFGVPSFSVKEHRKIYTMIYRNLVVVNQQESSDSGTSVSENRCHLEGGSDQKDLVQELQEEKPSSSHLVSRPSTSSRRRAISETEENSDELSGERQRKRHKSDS
assay_protocol: TR-FRET assay, p53-MDM2 Assay 2 (modified)
Assay type: binding
condition: TR-FRET; 0.1 nM MDM2, 0.1 nM Europium labeled streptavidin, Tecan genios Pro reader; read-out: IC50 p53-MDM2 Assay 2
Entry type: numeric. Quantity: pIC50, the -log10 of concentration in molar units.

| molecule | pIC50 |
| --- | --- |
| COc1nc(N(C)C)ncc1-c1cc2c(n1C(C)C)C(c1ccc(Cl)cc1)N(c1c(F)c(C)nn1C)C2=O (stereo not shown) | 9.80 |
| COc1ncc(-c2cc3c(n2C(C)C)C(c2ccc(Cl)cc2)N(c2c[nH]c(=O)c(Cl)c2)C3=O)c(OC)n1 (stereo not shown) | 9.58 |
| COc1ncc(-c2cc3c(n2C(C)C)C(c2ccc(Cl)cc2)N(c2cn(C)c(=O)cc2C)C3=O)c(OC)n1 (stereo not shown) | 8.73 |
| COc1ncc(-c2cc3c(n2C(C)C)[C@@H](c2ccc(C#N)cc2)N(c2cc(Cl)cn(C)c2=O)C3=O)c(OC)n1 | 6.05 |
| COc1ccc(C(=O)N2CCOCC2)cc1-c1cc2c(n1C(C)C)C(c1ccc(Cl)cc1)N(c1cc(Cl)ccc1C)C2=O (stereo not shown) | 9.97 |

Reported pIC50 ( COc1ccc(C#N)cc1-c1cc2c(n1C(C)C)C(c1ccc(Cl)cc1)N([C@H]1CC[C@H](O)CC1)C2=O (stereo partly shown) ) = 8.60

Quick note, pIC50 for "COc1ccc(C(=O)N(C)C)cc1-c1cc2c(n1C(C)C)[C@H](c1ccc(Cl)cc1)N(c1cc(Cl)ccc1C)C2=O" landed at 10.12

----------
tested_on: human MDM2 protein (amino acids 2-188) (Homo sapiens (Human), UniProt Q00987)
assay_protocol: TR-FRET assay, p53-MDM2 Assay 2 (modified)
Type: binding
condition: TR-FRET; 0.1 nM MDM2, 0.1 nM Europium labeled streptavidin, Tecan genios Pro reader; read-out: IC50 p53-MDM2 Assay 2
# log10(IC50) listing for each entry below
Heads up, the numbers here are log10 of IC50 in nM units.

Worked examples follow.
| molecule | log10(IC50) |
| --- | --- |
| COc1cn(C)c(=O)cc1-c1cc2c(n1C(C)C)C(c1ccc(Cl)cc1)N(c1cc(Cl)c(=O)n(C)c1)C2=O (stereo not drawn) | -0.60 |
| COc1ccc(-c2nnn[nH]2)cc1-c1cc2c(n1C(C)C)C(c1ccc(Cl)cc1)N(c1cc(Cl)ccc1C)C2=O (stereo not drawn) | -0.73 |
| COc1nc(N)ncc1-c1cc2c(n1C(C)C)C(c1ccc(C#N)cc1)N(c1ccc(F)c(Cl)c1)C2=O (stereo not drawn) | -0.25 |
| COc1nc(N(C)C)ncc1-c1cc2c(n1C(C)C)C(c1ccc(C#N)cc1)N([C@H]1CC[C@H](O)CC1)C2=O (stereo partly drawn) | 0.22 |
| CNC(=O)c1ccc(OC)c(-c2cc3c(n2C(C)C)[C@@H](c2ccc(Cl)cc2)N(c2cc(Cl)ccc2C)C3=O)c1 | 2.26 |

Now consider a different molecule.
The recorded log10(IC50) for entry COc1ncc(-c2c(C#N)c3c(n2C(C)C)C(c2ccc(Cl)cc2)N(c2cc(Cl)c(=O)n(C)c2)C3=O)c(OC)n1 (stereo not drawn) equals -0.78

Where these numbers come from: patent US9365576B2
